condition_summary: in n-pentyl acetate, 283.15 K
experimental_endpoint: solubility (mole fraction)
Answer using only a numeral; do not append any unit.

## Input Record request: solubility (mole fraction) value, item Cc1c(Cl)cccc1Nc1ccccc1C(=O)O
## Output 0.00558

----------
condition_summary: in ethylene glycol, 303.15 K
experimental_endpoint: solubility (mole fraction)
Answer using only a numeral; do not append any unit.

## Input Record request: solubility (mole fraction) value, item Cc1c(Cl)cccc1Nc1ccccc1C(=O)O
## Output 0.000311

----------
condition_summary: in n-heptanol, 313.15 K
experimental_endpoint: solubility (mole fraction)
Answer using only a numeral; do not append any unit.

## Input Record request: solubility (mole fraction) value, item Cc1c(Cl)cccc1Nc1ccccc1C(=O)O
## Output 0.0214
